pKi values for the molecules below.
Target: MCL-1 (Homo sapiens (Human), UniProt Q07820)
Sequence (Q07820 whole entry): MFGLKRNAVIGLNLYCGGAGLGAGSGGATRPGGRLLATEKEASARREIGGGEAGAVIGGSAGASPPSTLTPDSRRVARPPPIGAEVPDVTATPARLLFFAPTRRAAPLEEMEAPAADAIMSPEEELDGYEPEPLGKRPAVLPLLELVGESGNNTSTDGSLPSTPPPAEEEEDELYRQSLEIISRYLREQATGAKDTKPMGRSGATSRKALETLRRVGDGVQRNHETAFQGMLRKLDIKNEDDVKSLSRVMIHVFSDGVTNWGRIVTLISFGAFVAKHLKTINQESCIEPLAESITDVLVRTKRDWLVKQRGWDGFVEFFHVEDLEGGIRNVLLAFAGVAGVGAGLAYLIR
Test: Cell free Mcl-1:Bim affinity assay (fluorescence polarization competition)
Assay type: binding
Details: 15 nM MCL-1, 5 nM FITC-Bim, 1 hour at room temperature; class symbols; read-out: BIM_Ki
pKi: −log10 of the molar value.

- compound-smiles: "CO[C@@H]1/C=C/CCCCC(=O)NS(=O)(=O)c2ccc3c(c2)N(C[C@@H]2CC[C@H]21)C[C@@]1(CCCc2cc(Cl)ccc21)CO3"
  target-under-test: "MCL-1 (Homo sapiens (Human), UniProt Q07820)"
  observation-type: "pKi"
  obs-value: "7.00 to 9.00"
- compound-smiles: "COC(=O)N(C)[C@H]1/C=C/COC(C)(C)C(=O)NS(=O)(=O)c2ccc3c(c2)N(C[C@@H]2CC[C@H]21)C[C@@]1(CCCc2cc(Cl)ccc21)CO3"
  target-under-test: "MCL-1 (Homo sapiens (Human), UniProt Q07820)"
  observation-type: "pKi"
  obs-value: "7.00 to 9.00"

# context switch: different molecule, same pKi
Q: What value of pKi has been reported for the following molecule? CO[C@H]1/C=C/CNC(C)(C)C(=O)NS(=O)(=O)c2ccc3c(c2)N(C[C@@H]2CC[C@H]21)C[C@@]1(CCCc2cc(Cl)ccc21)CO3
Result: 7.00 to 9.00

* * *

Molecular target: MCL-1 (Homo sapiens (Human), UniProt Q07820)
Experiment: Cell free Mcl-1:Bim affinity assay (fluorescence polarization competition)
Format: binding
Details: 15 nM MCL-1, 5 nM FITC-Bim, 1 hour at room temperature; class symbols; read-out: BIM_Ki
Ki values for the molecules below.

- molecule: "COC1CN(C(=O)O[C@H]2/C=C/CN(C)C3(CCC3)C(=O)NS(=O)(=O)c3ccc4c(c3)N(C[C@@H]3CC[C@H]32)C[C@@]2(CCCc3cc(Cl)ccc32)CO4)C1 [Example 238]"
  observation-type: "Ki"
  obs-value: "< 1 nM"
- molecule: "CO[C@@H]1/C=C/C[C@H](C)[C@@H](CC(=O)N2CCOCC2)C(=O)NS(=O)(=O)c2ccc3c(c2)N(C[C@@H]2CC[C@H]21)C[C@@]1(CCCc2cc(Cl)ccc21)CO3 [Example 92]"
  observation-type: "Ki"
  obs-value: "< 1 nM"
- molecule: "CN(C(=O)O[C@H]1/C=C/COC(C)(C)C(=O)NS(=O)(=O)c2ccc3c(c2)N(C[C@@H]2CC[C@H]21)C[C@@]1(CCCc2cc(Cl)ccc21)CO3)[C@@H]1CCOC1 [Example 64]"
  observation-type: "Ki"
  obs-value: "< 1 nM"

Q: What value of Ki has been reported for the following molecule? CO[C@@H]1/C=C\CNC(=O)NS(=O)(=O)c2ccc3c(c2)N(C[C@@H]2CC[C@H]21)C[C@@]1(CCCc2cc(Cl)ccc21)CO3 [Example 130]
Result: 1 to 100 nM

* * *

pIC50 values for the molecules below.
Tested on: H929 cells
Assay: Cell viability assay (H929 10 FBS)
Format: cell-based
Conditions: Homo sapiens, NCI-H929, 24 hours, read-out: H929_10FBS IC50
pIC50: −log10 of the molar value.

- molecule: "CO[C@@H]1/C=C/CN[C@H](C)C(=O)NS(=O)(=O)c2ccc3c(c2)N(C[C@@H]2CC[C@H]21)C[C@@]1(CCCc2cc(Cl)ccc21)CO3"
  pIC50: "< 6.00"
- molecule: "CC1(C)OC/C=C/[C@H](OCCN2CCCCC2)[C@@H]2CC[C@H]2CN2C[C@@]3(CCCc4cc(Cl)ccc43)COc3ccc(cc32)S(=O)(=O)NC1=O"
  pIC50: "> 6.30"

Q: What value of pIC50 has been reported for the following molecule? COCC[C@H]1C(=O)NS(=O)(=O)c2ccc3c(c2)N(C[C@@H]2CC[C@H]2[C@H](OC)/C=C/C[C@@H]1C)C[C@@]1(CCCc2cc(Cl)ccc21)CO3
Result: < 6.00

Q: What value of pIC50 has been reported for the following molecule? CON(C)CCO[C@H]1/C=C/COC(C)(C)C(=O)NS(=O)(=O)c2ccc3c(c2)N(C[C@@H]2CC[C@H]21)C[C@@]1(CCCc2cc(Cl)ccc21)CO3
Result: > 6.00

Q: What value of pIC50 has been reported for the following molecule? CN(C(=O)O[C@H]1/C=C/COC2(CCC2)C(=O)NS(=O)(=O)c2ccc3c(c2)N(C[C@@H]2CC[C@H]21)C[C@@]1(CCCc2cc(Cl)ccc21)CO3)[C@@H]1CCOC1
Result: > 6.30

Q: What value of pIC50 has been reported for the following molecule? CC(=O)O[C@H]1/C=C/CO[C@@H](C)C(=O)NS(=O)(=O)c2ccc3c(c2)N(C[C@@H]2CC[C@H]21)C[C@@]1(CCCc2cc(Cl)ccc21)CO3
Result: > 6.00

Q: What value of pIC50 has been reported for the following molecule? O=C1NS(=O)(=O)c2ccc3c(c2)N(C[C@@H]2CC[C@H]2[C@H](O)/C=C/COC12CC2)C[C@@]1(CCCc2cc(Cl)ccc21)CO3
Result: > 6.30

Q: What value of pIC50 has been reported for the following molecule? CN1CCOC(C)(C)C(=O)NS(=O)(=O)c2ccc3c(c2)N(C[C@@H]2CC[C@H]2C1=O)C[C@@]1(CCCc2cc(Cl)ccc21)CO3
Result: < 6.00

Q: What value of pIC50 has been reported for the following molecule? CC1(C)OC/C=C/[C@H](OC(=O)NCC2CC2)[C@@H]2CC[C@H]2CN2C[C@@]3(CCCc4cc(Cl)ccc43)COc3ccc(cc32)S(=O)(=O)NC1=O
Result: > 6.30

Q: What value of pIC50 has been reported for the following molecule? CC1(C)OC/C=C/[C@H](OC(=O)N2CCCC2)[C@@H]2CC[C@H]2CN2C[C@@]3(CCCc4cc(Cl)ccc43)COc3ccc(cc32)S(=O)(=O)NC1=O
Result: > 6.30

Q: What value of pIC50 has been reported for the following molecule? CC1(C)CN(C(=O)O[C@H]2/C=C/COC(C)(C)C(=O)NS(=O)(=O)c3ccc4c(c3)N(C[C@@H]3CC[C@H]32)C[C@@]2(CCCc3cc(Cl)ccc32)CO4)CCO1
Result: > 6.30

* * *

System: H929 cells
Test: Cell viability assay (H929 10 FBS)
Assay type: cell-based
Details: Homo sapiens, NCI-H929, 24 hours, read-out: H929_10FBS IC50
observation-type: IC50

- compound-smiles: "CNCCN(C)C(=O)O[C@H]1/C=C/COC(C)(C)C(=O)NS(=O)(=O)c2ccc3c(c2)N(C[C@@H]2CC[C@H]21)C[C@@]1(CCCc2cc(Cl)ccc21)CO3"
  target-under-test: "H929 cells"
  obs-value: "< 500 nM"
- compound-smiles: "CO[C@H]1/C=C/C[C@H](C)[C@@H](C)C(=O)NS(=O)(=O)c2ccc3c(c2)N(C[C@@H]2CC[C@H]21)C[C@@]1(CCCc2cc(Cl)ccc21)CO3"
  target-under-test: "H929 cells"
  obs-value: "> 1000 nM"
- compound-smiles: "CO[C@@H]1/C=C/CC[C@@H](CO)C(=O)NS(=O)(=O)c2ccc3c(c2)N(C[C@@H]2CC[C@H]21)C[C@@]1(CCCc2cc(Cl)ccc21)CO3"
  target-under-test: "H929 cells"
  obs-value: "> 1000 nM"
- compound-smiles: "CNC(=O)O[C@H]1/C=C/COC(C)(C)C(=O)NS(=O)(=O)c2ccc3c(c2)N(C[C@@H]2CC[C@H]21)C[C@@]1(CCCc2cc(Cl)ccc21)CO3"
  target-under-test: "H929 cells"
  obs-value: "< 500 nM"
- compound-smiles: "COC1CCN(C(=O)O[C@H]2/C=C/COC(C)(C)C(=O)NS(=O)(=O)c3ccc4c(c3)N(C[C@@H]3CC[C@H]32)C[C@@]2(CCCc3cc(Cl)ccc32)CO4)CC1"
  target-under-test: "H929 cells"
  obs-value: "< 500 nM"
- compound-smiles: "CC1(C)OC/C=C/[C@H](OCCN2CCOCC2)[C@@H]2CC[C@H]2CN2C[C@@]3(CCCc4cc(Cl)ccc43)COc3ccc(cc32)S(=O)(=O)NC1=O"
  target-under-test: "H929 cells"
  obs-value: "< 500 nM"
- compound-smiles: "COCCOC[C@H]1C(=O)NS(=O)(=O)c2ccc3c(c2)N(C[C@@H]2CC[C@H]2[C@H](OC)/C=C/C[C@@H]1C)C[C@@]1(CCCc2cc(Cl)ccc21)CO3"
  target-under-test: "H929 cells"
  obs-value: "> 1000 nM"
- compound-smiles: "CN1C/C=C/[C@H](OC(=O)NC2CC2)[C@@H]2CC[C@H]2CN2C[C@@]3(CCCc4cc(Cl)ccc43)COc3ccc(cc32)S(=O)(=O)NC(=O)C1(C)C"
  target-under-test: "H929 cells"
  obs-value: "< 500 nM"
- compound-smiles: "COCCOC[C@@H]1CC/C=C/[C@@H](OC)[C@@H]2CC[C@H]2CN2C[C@@]3(CCCc4cc(Cl)ccc43)COc3ccc(cc32)S(=O)(=O)NC1=O"
  target-under-test: "H929 cells"
  obs-value: "> 1000 nM"
- compound-smiles: "O=C(Cc1nccs1)NS(=O)(=O)c1ccc2c(c1)N(CC1CCC1)C[C@@]1(CCCc3cc(Cl)ccc31)CO2"
  target-under-test: "H929 cells"
  obs-value: "> 1000 nM"

Q: What value of IC50 has been reported for the following molecule? CO[C@@H]1/C=C/CNC2(CCC2)C(=O)NS(=O)(=O)c2ccc3c(c2)N(C[C@@H]2CC[C@H]21)C[C@@]1(CCCc2cc(Cl)ccc21)CO3
Result: < 1000 nM

Q: What value of IC50 has been reported for the following molecule? CO[C@@H]1CCN(C(=O)O[C@H]2/C=C/COC(C)(C)C(=O)NS(=O)(=O)c3ccc4c(c3)N(C[C@@H]3CC[C@H]32)C[C@@]2(CCCc3cc(Cl)ccc32)CO4)C1
Result: < 500 nM
